# Tested On: GluN2B-containing NMDA receptors (Homo sapiens)
# Sequence (Q13224 27-1484, other chains not shown): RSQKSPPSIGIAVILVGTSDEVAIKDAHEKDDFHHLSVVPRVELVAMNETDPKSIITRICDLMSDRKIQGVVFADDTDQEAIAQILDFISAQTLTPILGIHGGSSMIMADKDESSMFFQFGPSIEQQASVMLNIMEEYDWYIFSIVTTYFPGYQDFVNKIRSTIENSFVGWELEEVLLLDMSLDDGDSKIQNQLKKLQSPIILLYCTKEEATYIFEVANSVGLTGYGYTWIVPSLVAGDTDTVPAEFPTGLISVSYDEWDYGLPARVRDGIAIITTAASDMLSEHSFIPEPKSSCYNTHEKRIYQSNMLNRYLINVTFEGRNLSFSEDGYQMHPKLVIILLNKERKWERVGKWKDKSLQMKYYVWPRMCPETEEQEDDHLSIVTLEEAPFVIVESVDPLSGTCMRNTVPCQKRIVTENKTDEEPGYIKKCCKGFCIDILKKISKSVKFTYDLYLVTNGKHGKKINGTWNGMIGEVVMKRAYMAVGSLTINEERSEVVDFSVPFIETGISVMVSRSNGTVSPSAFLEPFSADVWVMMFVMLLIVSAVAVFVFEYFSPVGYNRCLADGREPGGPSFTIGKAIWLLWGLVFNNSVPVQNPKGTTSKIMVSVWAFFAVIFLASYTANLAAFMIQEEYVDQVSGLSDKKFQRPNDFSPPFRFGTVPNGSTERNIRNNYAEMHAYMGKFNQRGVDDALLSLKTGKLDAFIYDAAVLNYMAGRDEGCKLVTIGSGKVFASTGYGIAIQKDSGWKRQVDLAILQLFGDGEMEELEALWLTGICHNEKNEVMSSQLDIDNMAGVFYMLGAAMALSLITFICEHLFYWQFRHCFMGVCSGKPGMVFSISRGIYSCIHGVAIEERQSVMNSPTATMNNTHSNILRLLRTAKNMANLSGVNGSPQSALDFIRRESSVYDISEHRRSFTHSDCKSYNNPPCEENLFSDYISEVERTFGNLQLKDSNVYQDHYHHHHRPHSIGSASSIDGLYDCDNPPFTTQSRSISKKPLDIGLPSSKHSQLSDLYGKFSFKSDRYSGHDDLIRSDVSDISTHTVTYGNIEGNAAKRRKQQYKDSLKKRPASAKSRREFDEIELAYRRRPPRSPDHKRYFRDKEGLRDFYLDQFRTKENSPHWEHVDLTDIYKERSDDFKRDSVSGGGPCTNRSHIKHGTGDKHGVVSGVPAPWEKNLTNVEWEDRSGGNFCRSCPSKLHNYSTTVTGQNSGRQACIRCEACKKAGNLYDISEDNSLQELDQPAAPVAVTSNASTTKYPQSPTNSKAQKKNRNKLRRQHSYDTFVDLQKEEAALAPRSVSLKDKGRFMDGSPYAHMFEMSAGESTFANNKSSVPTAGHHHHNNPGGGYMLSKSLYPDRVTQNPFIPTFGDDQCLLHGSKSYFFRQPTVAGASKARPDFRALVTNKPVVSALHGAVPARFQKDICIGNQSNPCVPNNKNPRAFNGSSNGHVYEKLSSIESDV
# Assay Notes: Two-electrode voltage-clamp recordings from Xenopus laevis oocytes, GluN2B
# Format: cell-based
# Setup Conditions: 10 μM test compound with glutamate 100 μM and glycine 30 μM; percent of response without compound; Tables 1-5
Property Measured: I10 μM/ICONTROL (mean ± SEM, %) Glu N2B
Number only, in %; omit the unit.

These recorded examples may help you get a feel for the data.
Compound: Cc1sc2ncn(CC(=O)N3CCCC3)c(=O)c2c1-c1ccc(O)cc1
I10 μM/ICONTROL (mean ± SEM, %) Glu N2B: 82

Compound: Cc1sc2ncn(CC(=O)N3CCCC3)c(=O)c2c1-c1ccc(N=[N+]=[N-])cc1
I10 μM/ICONTROL (mean ± SEM, %) Glu N2B: 135

Compound: COc1ccc(C(=O)Cn2cnc3sc4c(c3c2=O)CCCC4)c(OC)c1
I10 μM/ICONTROL (mean ± SEM, %) Glu N2B: 95

Exercise: Please report the recorded I10 μM/ICONTROL (mean ± SEM, %) Glu N2B for Cc1sc2ncn(CC(=O)c3ccccc3)c(=O)c2c1-c1cccc(I)c1 .
Key: 139

Exercise: Could you share which I10 μM/ICONTROL (mean ± SEM, %) Glu N2B value was measured for Cc1sc2ncn(CC(=O)Oc3ccccc3)c(=O)c2c1-c1cccc(Cl)c1 ?
Key: 96

Exercise: Dear colleague, I am looking for the recorded I10 μM/ICONTROL (mean ± SEM, %) Glu N2B of the following compound: CCOC(=O)Cn1cnc2sc(C)c(-c3cccc(Cl)c3)c2c1=O
Key: 127

Exercise: Requested field: I10 μM/ICONTROL (mean ± SEM, %) Glu N2B. Item: Cc1sc2ncn(CC(=O)N3CCCC3)c(=O)c2c1-c1ccc(Br)c(Br)c1
Key: 188

Exercise: # lookup: I10 μM/ICONTROL (mean ± SEM, %) Glu N2B of Cc1sc2ncn(CC(=O)N3CCCC3)c(=O)c2c1-c1cccc([N+](=O)[O-])c1
Key: 185

Exercise: Fill blank: measured I10 μM/ICONTROL (mean ± SEM, %) Glu N2B of the compound O=C(Cn1cnc2sc3c(c2c1=O)CCCC3)c1ccc([N+](=O)[O-])cc1 is ____.
Key: 94

Exercise: For the compound Cc1sc2ncn(CC(=O)N3CCCC3)c(=O)c2c1-c1cccc(C(F)(F)F)c1 , what I10 μM/ICONTROL (mean ± SEM, %) Glu N2B is on record?
Key: 211

Exercise: Tell me the measured I10 μM/ICONTROL (mean ± SEM, %) Glu N2B of Cc1sc2ncn(CC(=O)N3CCCC3)c(=O)c2c1-c1cccc(-n2ccnc2)c1 , please.
Key: 120

Exercise: Record request: I10 μM/ICONTROL (mean ± SEM, %) Glu N2B value, item O=C(Cn1cnc2scc(-c3ccc(I)cc3)c2c1=O)N1CCCC1
Key: 121

Exercise: Which I10 μM/ICONTROL (mean ± SEM, %) Glu N2B reading was recorded for the compound Cc1sc2ncn(CCC(=O)Oc3ccccc3)c(=O)c2c1-c1cccc(Cl)c1 ?
Key: 104
